Source listed as ChEMBL document CHEMBL1142894.

In this section we review reported inhibition in vivo at 200 mg/kg values for a set of compounds.
system: Mus musculus; experiment: Inhibition of carrageenan-induced paw edema in Swiss albino mouse at 200 mg/kg, po after 90 mins relative to control; assay type: functional; settings: 1.5 h
property: inhibition in vivo at 200 mg/kg (%)

>>> df
                     structure_notation                         property  readout_value
0  CCS(=O)(=O)c1nc(-c2ccc(Cl)cc2)n[nH]1  inhibition in vivo at 200 mg/kg           14.5
1     CS(=O)(=O)c1nc(-c2ccccc2Cl)n[nH]1  inhibition in vivo at 200 mg/kg            6.4
2    CCS(=O)(=O)c1nc(-c2ccccc2Cl)n[nH]1  inhibition in vivo at 200 mg/kg           18.9
3          CCSc1nc(-c2ccc(Cl)cc2)n[nH]1  inhibition in vivo at 200 mg/kg            2.6
4      CCS(=O)(=O)c1nc(-c2ccccc2)n[nH]1  inhibition in vivo at 200 mg/kg            9.9
